System: Streptococcus dysgalactiae
Assay: Antibacterial activity against erythromycin-resistant Streptococcus dysgalactiae A1 by broth microdilution method
Assay type: functional
readout: MIC (µg/mL)
Return type: number; implicit unit µg/mL.

The measured MIC that `CC[C@H]1OC(=O)[C@H](C)C(=O)[C@H](C)[C@@H](O[C@@H]2O[C@H](C)C[C@H](N(C)C)[C@H]2O)[C@](C)(OC)C[C@@H](C)/C(=N\OC/C=C/c2ccc(C(=O)c3ccccc3)s2)[C@H](C)[C@H]2OC(=O)O[C@@]21C` showed for Streptococcus dysgalactiae is 4

The reported Streptococcus dysgalactiae MIC of `CC[C@H]1OC(=O)[C@H](C)[C@@H](OC(=O)Cc2ccccn2)[C@H](C)[C@@H](O[C@@H]2O[C@H](C)C[C@H](N(C)C)[C@H]2O)[C@](C)(OC)C[C@@H](C)/C(=N\OC/C=C/c2cnc3ccccc3c2)[C@H](C)[C@H]2OC(=O)O[C@@]21C` is 8

The value of MIC recorded for `CC[C@H]1OC(=O)[C@H](C)[C@@H](O[C@H]2C[C@@](C)(OC)[C@@H](O)[C@H](C)O2)[C@H](C)[C@@H](O[C@@H]2O[C@H](C)C[C@H](N(C)C)[C@H]2O)[C@](C)(O)C[C@@H](C)CN(C)[C@H](C)[C@@H](O)[C@]1(C)O` when tested on Streptococcus dysgalactiae reads 64

Measured MIC for this entry `CC[C@H]1OC(=O)[C@H](C)[C@@H](O)[C@H](C)[C@@H](O[C@@H]2O[C@H](C)C[C@H](N(C)C)[C@H]2O)[C@](C)(OC)C[C@@H](C)/C(=N\OCCCc2cncc3ccccc23)[C@H](C)[C@H]2OC(=O)O[C@@]21C` on Streptococcus dysgalactiae: 16

# lookup: `CC[C@H]1OC(=O)[C@H](C)C(=O)[C@H](C)[C@@H](O[C@@H]2O[C@H](C)C[C@H](N(C)C)[C@H]2O)[C@](C)(OC)C[C@@H](C)/C(=N\OC/C=C/c2ccc(-c3ccccn3)s2)[C@H](C)[C@H]2OC(=O)O[C@@]21C` on Streptococcus dysgalactiae, MIC = 4

Fill in: Streptococcus dysgalactiae MIC for `CC[C@H]1OC(=O)[C@H](C)[C@@H](O/C=C\Cc2cncnc2)[C@H](C)[C@@H](O[C@@H]2O[C@H](C)C[C@H](N(C)C)[C@H]2O)[C@](C)(OC)C[C@@H](C)/C(=N\OC/C=C/c2cnc3ccccc3c2)[C@H](C)[C@H]2OC(=O)O[C@@]21C` = 16
